- assay-method-text: Inhibition of alpha-glucosidase 4
endpoint-name: IC50 (µM)
Give bare numbers, in µM.

What measured IC50 goes with C=C(C)[C@@H]1CC[C@]2(C)CC[C@]3(C)[C@H](CC[C@@H]4[C@@]5(C)CC[C@H](O)C(C)(C)[C@@H]5[C@@H](O)C[C@]43C)[C@@H]12 ?
42.5

Sourced from ChEMBL document CHEMBL1142635
